Hey, just so you know, these numbers are from PubChem BioAssay.

Provide the reported GFP response relative to DMSO of each item.
test: LAP4-GFP expression modulators in yeast, confirmation, cell-based, cherry picks, flow cytometry, mother/daughter gates (AID 2271);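 note: ratio of sample to DMSO plate mean so 100% equals DMSO level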; conditions: S. cerevisiae LAP4-GFP strain, 3 h, measured here: daughter cell gate response, at 10 µM, stronger effect = higher value, 100 means same as DMSO control
Give your result in % as a bare value.

Enquiry: So what's the measured GFP response relative to DMSO for this one? Cc1cccc(C)c1NC(=O)C(Cl)C(=O)c1ccccc1 (stereo unspecified)
Return: 168

Enquiry: GET /values?readout=GFP response relative to DMSO&item= "COc1ccc(NC(=O)C2CCN(S(=O)(=O)c3ccc(OC)c(OC)c3)CC2)c(OC)c1"
Return: 99.1

Enquiry: What does the record list as GFP response relative to DMSO for COc1ccc(NC(=S)N2CCC(c3ccccc3)C2)cc1 (stereo unspecified) ?
Return: 95.9

Enquiry: For the compound "COc1cccc(N=Nc2ccc(O)c3ncccc23)c1" , what GFP response relative to DMSO is on record?
Return: 205

Enquiry: // GFP response relative to DMSO lookup, key: "COc1ccc(-c2csc(NC(=O)CSc3nc(C)nc4sc(C(=O)O)c(C)c34)n2)cc1"
Return: 87.9

Enquiry: Need GFP response relative to DMSO of "Cc1c(C(=O)NCCSCc2cccc(C(F)(F)F)c2)cnn1-c1ccc(F)cc1" , thanks.
Return: 96.5

Enquiry: Which GFP response relative to DMSO is reported for this compound? "O=C(Nc1ccccc1O)c1ccccc1O"
Return: 96

Enquiry: # GFP response relative to DMSO lookup, item "CCOC(=O)Cc1csc(NC(=O)CCCCCN2C(=O)c3cccc4cccc(c34)C2=O)n1"
Return: 87.8

Enquiry: Field request: GFP response relative to DMSO | item: "CCN(CC)CCCN(Cc1cc2cc3c(cc2[nH]c1=O)OCO3)C(=S)Nc1ccccc1"
Return: 104

Enquiry: I am curious: what GFP response relative to DMSO value has been reported for "O=C1Nc2ccccc2/C1=C\C(=O)c1ccccc1" ?
Return: 180

Enquiry: Looking for the measured GFP response relative to DMSO of "Cc1cc(O)c(C(=O)/C=C/c2ccc(Cl)cc2)c(=O)o1" , can you help?
Return: 156
